As shown below, each of these compounds has a reported hERG current change (%, negative = inhibition) at 10uM value.
subject of test: human ether-à-go-go-related gene (hERG) potassium channel (human)
Sequence (Q12809 whole entry, looked up): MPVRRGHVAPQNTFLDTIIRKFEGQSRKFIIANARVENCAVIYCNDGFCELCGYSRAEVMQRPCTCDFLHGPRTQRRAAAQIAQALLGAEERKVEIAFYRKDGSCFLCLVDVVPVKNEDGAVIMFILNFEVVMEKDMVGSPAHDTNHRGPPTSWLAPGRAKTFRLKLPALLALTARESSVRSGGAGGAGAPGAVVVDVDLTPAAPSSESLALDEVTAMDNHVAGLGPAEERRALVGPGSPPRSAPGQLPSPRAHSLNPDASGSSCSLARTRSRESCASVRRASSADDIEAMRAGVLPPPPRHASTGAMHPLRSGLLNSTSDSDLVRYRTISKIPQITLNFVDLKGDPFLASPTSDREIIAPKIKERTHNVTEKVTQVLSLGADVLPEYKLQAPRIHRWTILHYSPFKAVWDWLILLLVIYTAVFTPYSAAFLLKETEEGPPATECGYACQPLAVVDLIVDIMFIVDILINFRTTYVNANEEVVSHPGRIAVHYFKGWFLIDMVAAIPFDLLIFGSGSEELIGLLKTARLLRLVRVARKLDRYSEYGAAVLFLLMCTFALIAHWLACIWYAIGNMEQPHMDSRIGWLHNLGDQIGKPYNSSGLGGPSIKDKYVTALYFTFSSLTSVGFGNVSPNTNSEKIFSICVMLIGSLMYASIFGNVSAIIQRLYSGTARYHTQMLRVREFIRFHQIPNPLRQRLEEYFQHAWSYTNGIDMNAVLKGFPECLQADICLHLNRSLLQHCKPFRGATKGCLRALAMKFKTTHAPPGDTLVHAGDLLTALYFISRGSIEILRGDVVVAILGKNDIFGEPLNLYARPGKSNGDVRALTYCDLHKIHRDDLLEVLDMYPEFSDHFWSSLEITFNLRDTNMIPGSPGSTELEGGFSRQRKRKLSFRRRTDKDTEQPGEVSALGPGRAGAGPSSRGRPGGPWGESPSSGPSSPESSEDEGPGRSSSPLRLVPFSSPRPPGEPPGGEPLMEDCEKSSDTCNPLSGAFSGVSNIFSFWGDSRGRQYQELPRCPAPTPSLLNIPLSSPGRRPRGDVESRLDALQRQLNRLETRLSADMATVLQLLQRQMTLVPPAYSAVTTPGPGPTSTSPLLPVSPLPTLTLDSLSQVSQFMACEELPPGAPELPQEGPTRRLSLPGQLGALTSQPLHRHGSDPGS
procedure text: primary screen, population patch clamp on CHO cells stably expressing hERG; higher = less effect of the substance;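 note: peak tail current of the secondary pulse compared with the same well before compound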
Out of some 310,000 compounds screened, about 14,000 (4.5%) showed an effect of 50% or more. The effect is printed as a negative number. Many of the other results were omitted from the sample, so strong results are more common in it than they were.
The reply should be a number in %, with the unit left off.

Examples with answers:
• Cc1cc2c(=O)n(CC(=O)N3CCN(c4ccc(F)cc4)CC3)cnc2s1 = -12.4
• COc1cc2c(c(OC)c1OC)-c1c(cc3c(c1O)OCO3)C[C@@H](C)[C@@H](C)C2 = 0.26
• CC(=O)NC(Cc1ccc(F)c(F)c1)C(=O)NC1CCN(c2c(Cc3ccccc3)c(C)nc3ncnn23)CC1 (stereo not shown) = -58.7
• O=C(CC1C(=O)NCCN1Cc1cccc(Oc2ccccc2)c1)NCCc1cscn1 (stereo not shown) = 8.01
• COC(=O)c1[nH]c2cc(OC)ccc2c1NC(=O)CCN1CCN(c2ccccc2)CC1 = -67

Given item CS(=O)(=O)N(C(=O)NC(=O)NC1CCS(=O)(=O)C1)C1CCCCC1 (stereo not shown) , the value recorded as its hERG current change (%, negative = inhibition) at 10uM is 4.13
